# key: entry, value: LD50
runDescription: Acute oral toxicity
Format: in vivo
measurementContext: ICR, mouse, in vivo, po, single oral dose, healthy ICR mice
Your answer is read as mg/kg, so omit the unit and give the number.

Field: example entries. Status: answers known.
CN(NC(=O)c1ccc(Cl)c(Cl)c1)c1ccc(Br)cc1 [Compound 5]    1400
CN(NC(=O)c1ccc(Br)cc1)c1ccc(Cl)c(Cl)c1 [Compound 18]    1400

Next, consider the following molecule.
Kindly note the recorded LD50 for CN(NC(=O)c1ccc(Br)cc1)c1ccc(C(F)(F)F)c(Cl)c1 [Compound 41] , which is 1400

====

Tested on: adult worms of S. japonicum (Chinese strain)
runDescription: microbe, parasite or virus in culture
measurementContext: 100 μM, 72 h, adult worms in vitro
# key: entry, value: Mortality (%) 72 h
Remember to follow the number with its unit.

CN(NC(=O)c1ccc(F)c(F)c1)c1ccc(Cl)c(Cl)c1 [Compound 24]    90%

Kindly note the recorded Mortality (%) 72 h for CN(NC(=O)c1ccc(Cl)c(Cl)c1)c1cccc(Cl)c1 [Compound 8] , which is 100%

Kindly note the recorded Mortality (%) 72 h for CN(NC(=O)c1ccc(Br)cc1)c1ccc(Cl)c(Cl)c1 [Compound 18] , which is 100%

Kindly note the recorded Mortality (%) 72 h for CN(NC(=O)c1ccc(C#N)cc1)c1ccc(Cl)c(Cl)c1 [Compound 20] , which is 100%

Kindly note the recorded Mortality (%) 72 h for CN(NC(=O)c1ccc(Cl)c(Cl)c1)c1ccc(Cl)c(C(F)(F)F)c1 [Compound 14] , which is 95%
